test system: red mites (Dermanyssus gallinae); test: Test Example 4: controlling effect on red mites, Pasteur pipette treated with acetone solution; type: in vivo; conditions: Dermanyssus gallinae, 24 hours after treatment, unfed adult red mites, read-out: Ratio of dead and affected mites
Reported pest or weed control at 5000 ppm values follow for various molecules
Report only the number, with the unit % understood.

Some solved entries appear below for comparison.
CC(C)Oc1cccc(NC(=O)c2ccccc2C(F)(F)F)c1 [Flutolanil]    39.5
CCCCCCCCCCCCC1=C(OC(C)=O)C(=O)c2ccccc2C1=O [Acequinocyl]    93.3

Next molecule, pest or weed control at 5000 ppm to be filled in.
Prompt: Using known records, supply pest or weed control at 5000 ppm for CON=C(C(=O)OC)c1ccccc1CON=C(C)c1cccc(C(F)(F)F)c1 [Trifloxystrobin]
Response: 75.7
